# System: SEM cells
# Experiment description: cell viability relative to DMSO control; higher = less cytotoxic
# Assay setup: RPMI 5 mM glucose + 10% FBS; 48 h; 0.000781 µM
Value kind: cell viability (%)
State just the number; it will be interpreted in %.

CCC(C)(Oc1ccc(C2(c3ccc(OC(C)(CC)C(=O)O)cc3)CCCCC2)cc1)C(=O)O (centres undefined) = 103
CCN1\C=C(\C(O)=O)C(=O)C2=CC=C(C)N=C12 = 86
CC(C)CC(=O)N[C@H](C(=O)N[C@H](C(=O)N[C@@H](CC(C)C)[C@@H](O)CC(=O)N[C@@H](C)C(=O)N[C@@H](CC(C)C)[C@@H](O)CC(=O)O)C(C)C)C(C)C = 82.7

Kindly consider the entry below.
Query: Which measured cell viability value corresponds to O=C(Nc1ccccc1-c1cn2c(CN3CCNCC3)csc2n1)c1cnc2ccccc2n1 ?
Reply: 71.4

* * *

# Test system: NOMO1
# Experiment description: cell viability relative to DMSO control; higher = less cytotoxic
# Assay setup: RPMI 5 mM glucose + 10% FBS; 48 h; 46.1 µM
Value kind: cell viability
State the value, then name its unit.

Consider the worked cases shown below.
CNC[C@H](O)c1ccc(O)c(O)c1 = 77.9%
O=c1[nH]c2ccccc2n1C1CCN(Cc2ccc(-c3nc4cc5nc[nH]c5cc4nc3-c3ccccc3)cc2)CC1 = 118%
CN(C)[C@H]\1[C@@H]2C[C@H]3C(=C(O)\[C@]2(O)C(=O)\C(=C1O)C(N)=O)/C(=O)C4=C(O)C=CC=C4[C@@]3(C)O = 106%
CC[C@H](C)[N]1C=C(C)C2=C1C=C(C=C2C(=O)NC\C3=C(C)\C=C(\C)NC3=O)C4=CC=C(N=C4)N5CCNCC5 = 102%
CC(C)C(=O)Oc1ccc(CO)cc1[C@H](CCN(C(C)C)C(C)C)c1ccccc1 = 78.4%

Query: Lab note: need cell viability for CN1\C(=C(\O)C2=CC=CC=C2[S+]1([O-])=O)C(=O)NC3=NC=C(C)S3 on NOMO1, anyone have it?
Reply: 95.9%

Query: Lab note: need cell viability for NC/1=N/C2=C([NH]C=N2)C(=S)N1 on NOMO1, anyone have it?
Reply: 27.6%

Query: Lab note: need cell viability for COC1=C2OC(=O)\C=C/C2=CC3=C1OC=C3 on NOMO1, anyone have it?
Reply: 97.3%

Query: Lab note: need cell viability for C[S+](=O)([O-])N1CCc2c(-c3cnc(N)nc3)nc(N3CCOCC3)nc21 on NOMO1, anyone have it?
Reply: 74%

* * *

# System: NOMO1
# Experiment description: cell viability relative to DMSO control; higher = less cytotoxic
# Assay setup: RPMI 5 mM glucose + 10% dialyzed FBS; 48 h; 46.1 µM
Measured cell viability, listed per entry for reference.
State just the number; it will be interpreted in %.

Cc1c(NC(=O)OC[C@@H]2COCCN2)cn2ncnc(Nc3ccc4c(cnn4Cc4cccc(F)c4)c3)c12 = 37.5
CCOC(=O)C/1=C(O)/C(=O)N(CC2=CC=CC=C2)C1 = 95.1
COc1ccc(-c2ccc3c(N4CCOC[C@@H]4C)nc(N4CCOC[C@@H]4C)nc3n2)cc1CO = 5.83
OC[C@H]1OCC(O1)[N@@]2C=CC(N)=NC2=O (stereo not given in full) = 113

Kindly consider the entry below.
Query: Which measured cell viability value corresponds to C=C[C@H]1CN2CC[C@H]1C[C@H]2[C@H](O)c1ccnc2ccc(OC)cc12 ?
Reply: 68.8
